study.target: Human recombinant Histone Deacetylase 8 (HDAC8) (Homo sapiens (Human), UniProt Q9BY41)
Sequence (Q9BY41 whole entry): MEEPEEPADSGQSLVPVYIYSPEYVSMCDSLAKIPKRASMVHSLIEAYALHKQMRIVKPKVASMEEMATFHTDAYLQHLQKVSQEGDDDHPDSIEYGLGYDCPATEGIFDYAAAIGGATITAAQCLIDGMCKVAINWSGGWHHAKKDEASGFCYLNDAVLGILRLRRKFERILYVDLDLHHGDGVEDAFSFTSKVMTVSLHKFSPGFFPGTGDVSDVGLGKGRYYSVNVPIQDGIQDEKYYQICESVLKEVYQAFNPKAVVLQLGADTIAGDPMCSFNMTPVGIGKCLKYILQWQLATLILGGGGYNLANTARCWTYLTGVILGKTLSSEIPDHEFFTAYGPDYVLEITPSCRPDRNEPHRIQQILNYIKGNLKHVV
measurement.notes: HDAC8 Enzymatic Assay (HDAC-Glo I/II luminescence)
Assay type: biochemical
condition.context: class symbols, Table 14; read-out: HDAC8 IC50
pIC50: −log10 of the molar value.
readout.label: pIC50

>>> assay_result("O=C(NO)C(Cc1ccccc1)n1cc2ccnc(Cl)c2n1 (stereo not drawn)")
"6.30 to 6.70"
>>> assay_result("O=C(NO)C(Cc1ccccc1)n1ncc2cc(Br)ncc21 (stereo not drawn)")
"< 6.30"
>>> assay_result("O=C(NO)C(Cc1ccccc1)n1cc2c(-c3ccccc3)cccc2n1 (stereo not drawn)")
"< 6.30"
>>> assay_result("CN(C)C(=O)c1cccc(-c2cccc3c(C#CC4CC4)n(C(Cc4ccccc4)C(=O)NO)nc23)c1 (stereo not drawn)")
"≥ 7.30"
>>> assay_result("COCc1ccc(-c2ccn3c(C(Cc4ccccc4)C(=O)NO)cnc3c2)cc1 (stereo not drawn)")
"< 6.30"
>>> assay_result("N#Cc1ccc(-c2ccc3c(cnn3C(Cc3ccccc3)C(=O)NO)c2)cc1 (stereo not drawn)")
"6.30 to 6.70"
>>> assay_result("O=C(NO)C(Cc1ccccc1)n1ncc2nc(Cl)ccc21 (stereo not drawn)")
"6.70 to 7.30"
>>> assay_result("CN1CCN(c2ccc(-c3cccc4nn(C(Cc5ccccc5)C(=O)NO)cc34)cn2)CC1 (stereo not drawn)")
"6.70 to 7.30"
>>> assay_result("Cn1nc(C(Cc2ccccc2)C(=O)NO)c2ccc(-c3ccncc3)cc21 (stereo not drawn)")
"6.70 to 7.30"
>>> assay_result("Cc1cccn2c(C(Cc3ccccc3)C(=O)NO)cnc12 (stereo not drawn)")
"6.30 to 6.70"
>>> assay_result("NC(=O)c1ccc(-c2cccc3c2cnn3C(Cc2ccccc2)C(=O)NO)cc1 (stereo not drawn)")
"< 6.30"
>>> assay_result("O=C(NO)C(Cc1ccccc1)n1nc(C#CC2CC2)c2cc(Cl)ccc21 (stereo not drawn)")
"6.70 to 7.30"
>>> assay_result("O=C(NO)C(Cc1ccccc1)n1ncc2cc(-c3cncnc3)ncc21 (stereo not drawn)")
"6.30 to 6.70"
>>> assay_result("CC(C)Oc1ccc(-c2cccc3nn(C(Cc4ccccc4)C(=O)NO)cc23)cn1 (stereo not drawn)")
"6.30 to 6.70"
>>> assay_result("O=C(NO)C(Cc1ccccc1)n1ncc2c1CCCC2 (stereo not drawn)")
"6.30 to 6.70"
>>> assay_result("O=C(NO)C(Cc1ccccc1)n1ncc2cc(Br)cnc21 (stereo not drawn)")
"6.30 to 6.70"
>>> assay_result("CN1CCN(c2ccc(-c3cccc4nn(C(Cc5ccccc5)C(=O)NO)cc34)cc2)CC1 (stereo not drawn)")
"6.70 to 7.30"
>>> assay_result("O=C(NO)C(Cc1ccccc1)n1cc2ccc(-c3cccnc3)cc2n1 (stereo not drawn)")
"6.30 to 6.70"
